Target: T1, recombinant human ErbB3 protein (R&D systems) (human, UniProt P21860 20-643)
T1 construct: Bought recombinant protein; also called HER3
Test: BLI (Octet QK384), human ErbB3 immobilized on AR2G sensor, IgG at 12.5-50 nM
measured-attribute: Kd (pM)
Give bare numbers, in pM.

binder: 442M8 (antibody, V domains shown, IgG1 (Selexis 085 vector, CHO)) VH: EVQLLESGGGLVQPGGSLRLSCAASGFTFSDYDMSWVRQAPGKGLEWVSSIYPDSGSTYYADSVQGRFTISRDNSKNTLYLQMNSLRAEDTAVYYCAKDLHMGPEGPFDYWGQGTLVTVSS VL: QSVLTQPPSASGTPGQRVTISCSGSSSNIGSNSVSWYQQLPGTAPKLLIYSDNHRPSGVPDRFSGSKSGTSASLAISGLRSEDEADYYCHAWDSSLYVDVFGGGTKLTVLG
Kd, pM: 2.56

Lab note: next binder to report on.
In: Any idea what its Kd is? The binder is 442S9 (antibody, V domains shown, IgG1 (Selexis 085 vector, CHO)) VH: EVQLLESGGGLVQPGGSLRLSCAASGFTFSDYDMSWVRQAPGKGLEWVSSIYPDSGSTYYADSVQGRFTISRDNSKNTLYLQMNSLRAEDTAVYYCAKDRHMWPEGPFDYWGQGTLVTVSS VL: QSVLTQPPSASGTPGQRVTISCSGSSSNIGSNSGSWYQQLPGTAPKLLIYADNHRPSGVPDRFSGSKSGTSASLAISGLRSEDEADYYCAAWDSSLSGYVFGGGTKLTVLG
Out: 71.6
